Biological target: biotinylated human Gal-3 (hGal-3) (Homo sapiens)
Sequence (P17931 whole entry): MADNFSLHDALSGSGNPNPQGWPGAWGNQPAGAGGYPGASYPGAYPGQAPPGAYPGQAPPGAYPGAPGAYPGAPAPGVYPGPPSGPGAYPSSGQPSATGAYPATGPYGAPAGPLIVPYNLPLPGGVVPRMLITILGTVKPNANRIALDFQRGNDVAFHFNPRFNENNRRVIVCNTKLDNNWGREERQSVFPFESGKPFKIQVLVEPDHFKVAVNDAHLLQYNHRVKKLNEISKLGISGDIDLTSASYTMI
Experiment: Competitive binding assay: biotinylated hGal-3 binding to microplate-adsorbed asialofetuin (ASF), spectrophotometric
Conditions: Gal-3 inhibition, Table 3; read-out: IC50
IC50 less than 200 nM is criterion met; IC50 greater than or equal to 200 nM is criterion not met.

molecule	assigned.category
CCN(C)C(=O)[C@@H](S[C@@H]1O[C@H](CO)[C@H](O)[C@H](n2cc(-c3cc(F)c(F)c(F)c3)nn2)[C@H]1O)C(C)(C)O [Example 2.31.203S.]	criterion met
CC1CCN1C(=O)C(S[C@@H]1O[C@H](CO)[C@H](O)[C@H](n2cc(-c3cc(F)c(F)c(F)c3)nn2)[C@H]1O)C(C)(C)O (stereo partly shown) [Example 2.31.204.]	criterion met
CCN(C)C(=O)C(S[C@@H]1O[C@H](CO)[C@H](O)[C@H](n2cc(-c3cc(F)c(F)c(F)c3)nn2)[C@H]1O)C(C)(C)O (stereo partly shown) [Example 2.31.203.]	criterion not met
CCN(CC)C(=O)C(S[C@@H]1O[C@H](CO)[C@H](O)[C@H](n2cc(-c3cc(F)c(F)c(F)c3)nn2)[C@H]1O)C(C)(C)O (stereo partly shown) [Example 2.31.202.]	criterion met
CN(C)C(=O)C(S[C@@H]1O[C@H](CO)[C@H](O)[C@H](n2cc(-c3cc(F)c(F)c(F)c3)nn2)[C@H]1O)C(C)(C)O (stereo partly shown) [Example 2.31.201.]	criterion not met

Moving on to another molecule below.
(Q) Is IC50 strictly under 200 nM for the entry CCN(C)C(=O)[C@H](S[C@@H]1O[C@H](CO)[C@H](O)[C@H](n2cc(-c3cc(F)c(F)c(F)c3)nn2)[C@H]1O)C(C)(C)O [Example 2.31.203R.] ?
(A) criterion not met

* * *

Target: biotinylated human Gal-3 (hGal-3) (Homo sapiens)
Assay: Competitive binding assay: biotinylated hGal-3 binding to microplate-adsorbed asialofetuin (ASF), spectrophotometric
Settings: Gal-3 inhibition, Table 4; read-out: IC50
Listed here are compounds together with their documented pIC50.
Friendly reminder that pIC50 comes from taking -log10 of the concentration in mol/L.

compound	pIC50
O=C([C@H](S[C@@H]1O[C@H](CO)[C@H](O)[C@H](n2cc(-c3cc(F)c(F)c(F)c3)nn2)[C@H]1O)C1(O)CCOCC1)N1CCc2ccccc21 [Example 2.41.209R.]	5.88
O=C(C(S[C@@H]1O[C@H](CO)[C@H](O)[C@H](n2cc(-c3cc(F)c(F)c(F)c3)nn2)[C@H]1O)C1(O)CCOCC1)N1CCc2ccccc21 (stereo partly drawn)	6.82

(Q) Reported pIC50 for biotinylated human Gal-3 (hGal-3) (Homo sapiens), given CN(Cc1ccccc1)C(=O)[C@H](S[C@@H]1O[C@H](CO)[C@H](O)[C@H](n2cc(-c3cc(F)c(F)c(F)c3)nn2)[C@H]1O)C1(O)CCOCC1 [Example 2.41.207R.] ?
(A) 5.08

(Q) Next entry: CN1CCC(O)(C(S[C@@H]2O[C@H](CO)[C@H](O)[C@H](n3cc(-c4cc(F)c(F)c(F)c4)nn3)[C@H]2O)C(=O)N2CCCCC2)CC1 (stereo partly drawn)
(A) 7.52

(Q) Now the same for CN(Cc1cn(C)cn1)C(=O)C(S[C@@H]1O[C@H](CO)[C@H](O)[C@H](n2cc(-c3cc(F)c(F)c(F)c3)nn2)[C@H]1O)C1(O)CCOCC1 (stereo partly drawn)
(A) 7.22

(Q) And the next one, CC1CN(C(=O)[C@@H](S[C@@H]2O[C@H](CO)[C@H](O)[C@H](n3cc(-c4cc(F)c(F)c(F)c4)nn3)[C@H]2O)C2(O)CCOCC2)C1 [Example 2.41.205S.] ?
(A) 6.92
